# Test system: dissociated rat embryonic spinal cord culture (ChAT activity)
# experimentNotes: Enhancement of spinal cord ChAT activity in dissociated rat embryonic spinal cord culture
# Assay type: cell-based
# conditionSet: maximal activity; ChAT measured after 2 days in vitro
Listing: Spinal Cord ChAT % control, Maximal Activity of selected compounds
Enter your answer as a number in % control; do not include the unit.

// recorded Spinal Cord ChAT % control, Maximal Activity for C[C@]12OC(C[C@H]1CO)n1c3ccccc3c3c4c(c5c6ccccc6n2c5c31)CNC4=O [Compound VI] : 125

----------
# Tested on: dissociated rat embryonic spinal cord culture (ChAT activity)
# experimentNotes: Enhancement of spinal cord ChAT activity in dissociated rat embryonic spinal cord culture
# Type: cell-based
# conditionSet: 50 nM; ChAT measured after 2 days in vitro
# Excerpt: ChAT was employed a biochemical marker for functional cholinergic neurons. CHAT activity has been used to study the effects of neurotrophins (e.g., NGF or NT-3) on the survival and/or function of cholinergic neurons. The ChAT assay also has been used as an indication of the regulation of ChAT levels within cholinergic neurons. […] In these assays, a compound was directly added to a dissociated spinal cord culture. […] Neurochem.
readoutLabel: Spinal Cord ChAT % control, Activity at 50 nM

| molecule | testResult |
| --- | --- |
| C[C@]12OC(C[C@H]1CO)n1c3ccccc3c3c4c(c5c6ccccc6n2c5c31)CNC4=O [Compound VI] | <120 % control |
| C[C@]12OC(C[C@@]1(O)CO)n1c3ccccc3c3c4c(c5c6ccccc6n2c5c31)CNC4=O [Compound VII] | <120 % control |
| C[C@]1(O)CC2O[C@]1(C)n1c3ccccc3c3c4c(c5c6ccccc6n2c5c31)C(=O)NC4 [Compound X] | <120 % control |

// recorded Spinal Cord ChAT % control, Activity at 50 nM for COC(=O)[C@]1(O)CC2O[C@]1(C)n1c3ccccc3c3c4c(c5c6ccccc6n2c5c31)C(=O)NC4 [Compound XIV, 3′-(R)-K-252a] : 147 % control

Hey, just so you know, these numbers are from patent US6451786B1.
